FYI, the data here is from ChEMBL document CHEMBL4219253.

Each item that follows carries a reported pEC50.
- measurement target: Glutamate NMDA receptor; Grin1/Grin2b (Rattus norvegicus, UniProt P35439+Q00960)
- Sequence (Q00960 whole entry, other chains not shown): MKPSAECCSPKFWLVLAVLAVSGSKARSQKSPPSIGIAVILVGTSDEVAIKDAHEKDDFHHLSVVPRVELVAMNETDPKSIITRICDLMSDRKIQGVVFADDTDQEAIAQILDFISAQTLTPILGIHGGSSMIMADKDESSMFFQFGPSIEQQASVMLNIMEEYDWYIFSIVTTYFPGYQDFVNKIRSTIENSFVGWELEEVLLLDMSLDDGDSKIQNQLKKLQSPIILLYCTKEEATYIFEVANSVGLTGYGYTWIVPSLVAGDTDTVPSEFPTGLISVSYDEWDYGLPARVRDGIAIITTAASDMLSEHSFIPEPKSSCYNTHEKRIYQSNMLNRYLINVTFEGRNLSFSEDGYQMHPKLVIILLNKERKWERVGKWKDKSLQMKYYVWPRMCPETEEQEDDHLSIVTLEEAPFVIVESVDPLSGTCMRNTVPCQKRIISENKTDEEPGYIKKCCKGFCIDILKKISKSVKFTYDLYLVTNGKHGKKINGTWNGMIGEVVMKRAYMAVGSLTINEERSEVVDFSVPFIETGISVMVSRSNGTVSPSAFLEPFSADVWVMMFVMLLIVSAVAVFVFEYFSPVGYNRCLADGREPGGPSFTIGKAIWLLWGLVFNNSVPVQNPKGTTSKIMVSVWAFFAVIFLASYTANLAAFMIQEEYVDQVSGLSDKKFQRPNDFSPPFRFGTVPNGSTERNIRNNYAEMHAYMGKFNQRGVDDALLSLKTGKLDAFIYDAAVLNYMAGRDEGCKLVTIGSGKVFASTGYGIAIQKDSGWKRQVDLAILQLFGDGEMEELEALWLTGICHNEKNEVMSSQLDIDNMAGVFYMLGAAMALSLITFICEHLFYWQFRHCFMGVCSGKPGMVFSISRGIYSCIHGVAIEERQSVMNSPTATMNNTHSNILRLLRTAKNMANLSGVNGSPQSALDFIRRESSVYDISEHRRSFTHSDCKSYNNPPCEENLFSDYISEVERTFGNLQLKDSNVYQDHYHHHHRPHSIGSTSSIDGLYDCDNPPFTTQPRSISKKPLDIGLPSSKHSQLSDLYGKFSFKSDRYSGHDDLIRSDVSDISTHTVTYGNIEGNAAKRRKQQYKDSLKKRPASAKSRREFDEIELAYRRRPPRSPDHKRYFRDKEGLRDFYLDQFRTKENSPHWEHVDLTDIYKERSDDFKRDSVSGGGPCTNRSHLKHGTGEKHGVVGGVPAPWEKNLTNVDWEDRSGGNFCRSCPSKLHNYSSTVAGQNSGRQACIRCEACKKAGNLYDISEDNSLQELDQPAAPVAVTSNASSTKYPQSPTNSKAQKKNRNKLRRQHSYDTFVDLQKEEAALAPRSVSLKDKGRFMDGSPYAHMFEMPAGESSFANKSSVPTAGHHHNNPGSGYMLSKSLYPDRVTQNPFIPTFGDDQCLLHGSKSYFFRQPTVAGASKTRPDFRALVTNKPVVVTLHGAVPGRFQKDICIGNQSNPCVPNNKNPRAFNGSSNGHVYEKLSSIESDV
- test description: Positive allosteric modulation of recombinant rat GluN1alpha/GluN2B receptor expressed in HEK293 cells assessed as potentiation of glutamate-induced current response at holding potential -60mV by whole cell voltage clamp method
Scale note: pEC50 = -log10(concentration in M).

Here are 4 compounds together with their reported answers.
> print(dat)
                                 cpd.smiles  measurement
1  C[C@@]12CCC[C@H]1[C@@H]1CC=C3C[C@@H](OC(=O)CCCCC(=O)O)CC[C@]3(C)[C@H]1CC2         5.55
2  CC[C@H]1CC[C@H]2[C@@H]3CC=C4C[C@@H](OC(=O)CCC(=O)O)CC[C@]4(C)[C@H]3CC[C@]12C         5.00
3  CC(=O)[C@H]1CC[C@H]2[C@@H]3CC=C4C[C@@H](OC(=O)CC(=O)O)CC[C@]4(C)[C@H]3CC[C@]12C         4.40
4  C[C@]12CC[C@H](OC(=O)CCCC(=O)O)CC1=CC[C@@H]1[C@@H]2CC[C@]2(C)C(=O)CC[C@@H]12         3.82

Prompt line: Item CC[C@H]1CC[C@H]2[C@@H]3CC=C4C[C@@H](OC(=O)CC(=O)O)CC[C@]4(C)[C@H]3CC[C@]12C with Glutamate NMDA receptor; Grin1/Grin2b (Rattus norvegicus, UniProt P35439+Q00960) - pEC50?
Response line: 4.97

Prompt line: Item CC(=O)[C@H]1CC[C@H]2[C@@H]3CC=C4C[C@@H](OC(=O)CCCC(=O)O)CC[C@]4(C)[C@H]3CC[C@]12C with Glutamate NMDA receptor; Grin1/Grin2b (Rattus norvegicus, UniProt P35439+Q00960) - pEC50?
Response line: 4.72
